Experiment: yeast display, Sf9 membrane polyspecificity reagent, FACS + sequencing; frameworks hold sequencing errors
VALUE_KIND: polyreactivity (PSR sort gate)

ITEM_SEQUENCE	VALUE_KIND	READING
QVQLVESGGGLVQAGGSLRLSCAASGSTFFPNDKGWYRQAPGKERELVAAISWRGGNTYADSVKGLFTISRDNAKYTVYLQMNSLKPEDTAVYYCAAEFWYTYPYLVDYWGQGTLVTVSS	polyreactivity (PSR sort gate)	low polyreactivity
QVQLVESGGGLVQAGGSLRLSCAASGRTFFGNAMGWYRQAPGKERELVAVISQGGGSTYYADSVKGRFTISRDNAKNTVYLQMNSLKPEDTAVYYCAKRYPHVGSGQLGGTYNYWGQGTQVTVSS	polyreactivity (PSR sort gate)	low polyreactivity
QGQLVESGGGLVQAGGSRRLSCAASGRIFFYYAMGGYRQGPGQARELVAAISQSGASTYYADSVKGRFTISRDTAKNTVYLQMNSLKPEDTAVYYCNHKPYWYRDYYYWGQGTQVTVSS	polyreactivity (PSR sort gate)	high polyreactivity
QVQLVESGGGLVHAGGSLRLSCAPSGSTFFTNAMGWYRQAPGKERELVAAITINDGSTFYADSVKGRFTISRDNAKNTVYLQMNSLKQEDTAVYYCNADGVDLYDYWGQGTQVTVSS	polyreactivity (PSR sort gate)	low polyreactivity
QVQLVESGGGLVHAGGSLRLSCAASGRIFYPYTMGWYRQAPGKERELVAAISIRGTSTYYADSVKGRFTISRDNAKNTVYLQMNSLKPEDTAVYYCAALYVGYDYWGQGTQVTVSS	polyreactivity (PSR sort gate)	high polyreactivity
